Biological target: T1, human TREM2 (human, UniProt Q9NZC2 19-174, limits assumed)
T1 construct: also called triggering receptor expressed on myeloid cells 2
T1 sequence: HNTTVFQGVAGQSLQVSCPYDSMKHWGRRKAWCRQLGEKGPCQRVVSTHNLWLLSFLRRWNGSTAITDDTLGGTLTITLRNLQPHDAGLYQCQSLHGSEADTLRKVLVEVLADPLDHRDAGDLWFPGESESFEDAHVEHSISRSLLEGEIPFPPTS
Assay: 2nd screen 2 nM
metric: Binding Signal (fold over 6E7 Parental antibody) (fold)
Unit fold implied. Number only.

INSERT INTO assay_data (binder, reading) VALUES
  ('V15 (antibody, V domains shown) VH: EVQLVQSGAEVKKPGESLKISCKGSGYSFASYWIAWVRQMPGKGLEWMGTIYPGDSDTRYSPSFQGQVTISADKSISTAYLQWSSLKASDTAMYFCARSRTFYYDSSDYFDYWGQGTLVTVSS VL: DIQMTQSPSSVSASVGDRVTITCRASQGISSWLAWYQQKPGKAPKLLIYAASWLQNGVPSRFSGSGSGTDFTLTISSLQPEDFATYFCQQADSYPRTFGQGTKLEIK', 4.72);

Prompt line: Given the binder V51 (antibody, V domains shown) VH: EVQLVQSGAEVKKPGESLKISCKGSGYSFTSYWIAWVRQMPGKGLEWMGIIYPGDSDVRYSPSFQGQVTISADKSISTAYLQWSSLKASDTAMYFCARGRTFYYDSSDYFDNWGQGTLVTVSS VL: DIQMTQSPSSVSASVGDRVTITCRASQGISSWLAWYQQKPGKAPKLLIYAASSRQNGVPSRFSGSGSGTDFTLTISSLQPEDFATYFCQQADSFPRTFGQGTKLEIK , what is its reported Binding Signal (fold over 6E7 Parental antibody)?
Response line: 1.83
